All values here come from patent US6495171B2.

Test system: IL-4 production
measurement notes: Measurement of IL-4 production inhibiting ability (KLH-stimulated lymphocytes, ELISA)
Format: cell-based
experimental context: lymph node lymphocytes of KLH-sensitized Balb/c mice, KLH 10 μg/mL, 3 days, IL-4 in supernatant by ELISA
Procedure: A 4 mg/mL solution of KLH (Keyhole Limpet Hemocyanin; product of Pierce Chemical Company) and Freund complete adjuvant FCA (Bacto Adjuvant Complete Freund; product of DIFCO) were mixed and emulsified at a volume ratio of 1:1. […] After incubation at 37° C. for 3 days in the presence of 5% CO2, IL-4 in each supernatant was quantitated by ELISA. For the ELISA quantitation, “Mice IL-4 ELISA Kit” (product of Amersham Corp.) was used. […]
Known IC50 (concentrations at which IL-4 yields were inhibited by 50%) of a selection of compounds
Answer by giving the amount and then stating its unit.

IC50 (concentrations at which IL-4 yields were inhibited by 50%) reading for "C[C@H]1CC[C@@H](C(C)(C)O)CC2=C1CC[C@@H]2C" : 0.68 µg/mL

* * *

Known IC50 (concentrations at which IL-4 yields were inhibited by 50%) of a selection of compounds
Tested on: IL-4 production
measurement notes: Measurement of IL-4 production inhibiting ability (KLH-stimulated lymphocytes, ELISA)
Assay type: cell-based
experimental context: lymph node lymphocytes of KLH-sensitized Balb/c mice, KLH 10 μg/mL, 3 days, IL-4 in supernatant by ELISA

compound | val
CC(=O)C1=C(C)[C@@H]2C[C@@]3(C1)[C@H](C)CC[C@H]3C2(C)C [Acetylcedrene] | 1.60 µg/mL
C[C@H]1CC[C@@]2(O)C(C)(C)[C@@H]3CC[C@@]2(C)[C@H]1C3 [Patchouli alcohol] | 0.72 µg/mL

Below: the item to evaluate.
IC50 (concentrations at which IL-4 yields were inhibited by 50%) reading for CC1(C)CCC[C@@]2(C)CC[C@](C)(O)CC=C12 [Widdrol] : 4.00 µg/mL
